Values compiled from ChEMBL document CHEMBL4376814.

target: CDK4/Cyclin D3 (Homo sapiens) (UniProt P11802+P30281); assay: Inhibition of recombinant full-length human CDK4/cyclinD3 at 500 nM using Rb fragment as substrate measured after 40 mins in presence of [gamma33P]ATP by scintillation counting method relative to control; type: protein-complex assay
For each entry below, report its inhibition value.
Respond with a number, then the unit of measure.

Exam item: # return recorded inhibition for entry CN(C)C(=O)c1cc2cnc(Nc3ccc(C(=O)NCCCCCN=C=S)cc3F)nc2n1C1CCCC1
Marked response: 72%

Exam item: # return recorded inhibition for entry CN(C)C(=O)c1cc2cnc(Nc3ccc(C(=O)NCCCN=C=S)cn3)nc2n1C1CCCC1
Marked response: 92%

Exam item: # return recorded inhibition for entry CN(C)C(=O)c1cc2cnc(Nc3ccc(C(=O)NCCCCCCCN=C=S)cc3F)nc2n1C1CCCC1
Marked response: 60%

Exam item: # return recorded inhibition for entry CN(C)C(=O)c1cc2cnc(Nc3ccc(NC(=O)CCCCCCN=C=S)cc3)nc2n1C1CCCC1
Marked response: 99%

Exam item: # return recorded inhibition for entry CN(C)C(=O)c1cc2cnc(Nc3ccc(C(=O)NCCCCN=C=S)cc3F)nc2n1C1CCCC1
Marked response: 76%

Exam item: # return recorded inhibition for entry CN(C)C(=O)c1cc2cnc(Nc3ccc(S(=O)(=O)NCCCCCCN=C=S)cc3)nc2n1C1CCCC1
Marked response: 78%

Exam item: # return recorded inhibition for entry CN(C)C(=O)c1cc2cnc(Nc3ccc(NC(=O)CCCN=C=S)cc3)nc2n1C1CCCC1
Marked response: 99%

Exam item: # return recorded inhibition for entry CN(C)C(=O)c1cc2cnc(Nc3ccc(NC(=O)CCCCCCCN=C=S)cc3F)nc2n1C1CCCC1
Marked response: 62%

Exam item: # return recorded inhibition for entry CN(C)C(=O)c1cc2cnc(Nc3ccc(S(=O)(=O)NCCCCCN=C=S)cc3)nc2n1C1CCCC1
Marked response: 85%

Exam item: # return recorded inhibition for entry CN(C)C(=O)c1cc2cnc(Nc3ccc(C(=O)NCCCN=C=S)cc3)nc2n1C1CCCC1
Marked response: 98%

Exam item: # return recorded inhibition for entry CN(C)C(=O)c1cc2cnc(Nc3ccc(CNC(=O)CCCCCCCN=C=S)cc3)nc2n1C1CCCC1
Marked response: 89%

Exam item: # return recorded inhibition for entry CN(C)C(=O)c1cc2cnc(Nc3ccc(S(=O)(=O)NCCCN=C=S)cc3)nc2n1C1CCCC1
Marked response: 85%

Exam item: # return recorded inhibition for entry CN(C)C(=O)c1cc2cnc(Nc3ccc(NC(=O)CCCCN=C=S)cc3)nc2n1C1CCCC1
Marked response: 100%

Exam item: # return recorded inhibition for entry CN(C)C(=O)c1cc2cnc(Nc3ccc(C(=O)NCCCCN=C=S)cc3)nc2n1C1CCCC1
Marked response: 99%

Exam item: # return recorded inhibition for entry CN(C)C(=O)c1cc2cnc(Nc3ccc(C(=O)NCCCCCN=C=S)cn3)nc2n1C1CCCC1
Marked response: 94%

Exam item: # return recorded inhibition for entry CN(C)C(=O)c1cc2cnc(Nc3ccc(S(=O)(=O)NCCCCN=C=S)cc3)nc2n1C1CCCC1
Marked response: 91%

Exam item: # return recorded inhibition for entry CN(C)C(=O)c1cc2cnc(Nc3cccc(NC(=O)CCCCCCCN=C=S)c3)nc2n1C1CCCC1
Marked response: 59%

Exam item: # return recorded inhibition for entry CN(C)C(=O)c1cc2cnc(Nc3ccc(C(=O)NCCCCCCN=C=S)cn3)nc2n1C1CCCC1
Marked response: 93%
